- experiment: chemical genetic growth profiling, strain panel (AID 1159580);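 further: tested at 20 µM; growth read once vehicle control cultures reached saturation at 30 °C; 1 = growth at the plate median or of vehicle wells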
- testConditions: S. cerevisiae deletion strains, growth OD, locus YOR144C, strain elg1
About 2,000 (36%) of roughly 5,500 compounds were called active. Another 18% or so got no clear call; they are omitted. No stated cut-off is given here; in the data, active means normalized growth mostly below about 0.91 (no sharp cut-off); inconclusive means no clear call, values can overlap the other calls; inactive means mostly above about 0.92. The list shows a part of the results.
I would appreciate it if you answered using one of these outcomes: active, inactive

Previously resolved entries follow.
compound | classification
CN(C)CCC=C1c2ccccc2C=Cc2ccccc21 | inactive
CC1NC(=O)NC1=O (configuration not stated) | inactive
CC(=O)CC(c1ccccc1)c1c(O)c2ccccc2oc1=O (configuration not stated) | inactive

Now consider a different compound.
## Input Called result for OC1C(O)C(O)C(O)C(O)C1O (configuration not stated)
## Output inactive

---

- experiment: chemical genetic growth profiling, strain panel (AID 1159580);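 further: tested at 20 µM; growth read once vehicle control cultures reached saturation at 30 °C; 1 = growth at the plate median or of vehicle wells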
- testConditions: S. cerevisiae deletion strains, growth OD, locus YAL026C, strain drs2
Out of some 5,500 compounds screened, about 2,000 (36%) were called active. Inconclusive results (about 18%) are left out. Rule as the data show it: active = normalized growth mostly below about 0.91 (no sharp cut-off); inconclusive = no clear call, values can overlap the other calls; inactive = mostly above about 0.92. This is one part of the list.
I would appreciate it if you answered using one of these outcomes: active, inactive

compound | classification
COc1cccc2c1cc([N+](=O)[O-])c1c(C(=O)O)cc3c(c12)OCO3 | inactive
CC(C(=O)O)[C@H]1CCC2C3CC=C4C[C@@H](O)CC[C@]4(C)C3CC[C@@]21C (some centres not stated) | active
COc1ccc(C(=O)/C=C/c2ccccc2)cc1 | inactive
CN(C)CCC=C1c2ccccc2C=Cc2ccccc21 | active
CN(C)CC/C=C1/c2ccccc2COc2ccccc21 | inactive
Cn1c(=O)c2[nH]c(C3CCCC3)nc2n(C)c1=O | inactive
CCCCCCCCCCCCCCCC[n+]1ccccc1 | active
CC(C)(C)C(=O)C(Oc1ccc(Cl)cc1)n1cncn1 (configuration not stated) | active
CC(C)(Oc1ccc(Cl)cc1)C(=O)O | inactive
O=c1c(-c2cc(O)c(O)c(O)c2)coc2cc(O)c(O)c(O)c12 | active

## Input Called result for O=C(/C=C/c1ccccc1)c1ccc(O)cc1
## Output active

## Input Called result for CC(=O)Oc1cc(-c2coc3cc(OC(C)=O)c(OC(C)=O)c(OC(C)=O)c3c2=O)cc(OC(C)=O)c1OC(C)=O
## Output active

---

- experiment: chemical genetic growth profiling, strain panel (AID 1159580);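 further: tested at 20 µM; growth read once vehicle control cultures reached saturation at 30 °C; 1 = growth at the plate median or of vehicle wells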
- testConditions: S. cerevisiae deletion strains, growth OD, locus YGL167C, strain pmr1, stronger effect = lower value
The campaign covered roughly 5,500 compounds. About 2,000 (36%) were called active. About 18% were inconclusive and are not listed. This is one part of the list.
reportedMetric: normalized growth

Observe how each entry below is paired with its result.
compound | normalized growth
NCCc1ccc(O)cc1 | 0.972 (inactive)
NCCc1ccc(O)c(O)c1 | 1.02 (inactive)
COc1ccc(-c2cc(=O)c3c(OC(C)=O)cc(OC(C)=O)cc3o2)cc1 | 0.992 (inactive)
CCOC(=O)C1C(C=C(C)C)C1(C)C (configuration not stated) | 1 (inactive)
O=c1c(-c2cc(O)c(O)c(O)c2)coc2cc(O)c(O)c(O)c12 | 1 (inactive)
COc1c2c(cc3c1OCO3)CC[N+](C)=C2 | 0.993 (inactive)
CC(=O)Oc1ccc(-c2cc(=O)c3c(OC(C)=O)cc(OC(C)=O)cc3o2)cc1 | 0.965 (inactive)
COc1cc2cc[n+]3cc4c(OC)c(OC)ccc4cc3c2cc1OC | 0.973 (inactive)

Batch request: normalized growth per item, same order as input.
1. O=C1c2c(O)ccc(O)c2C(=O)c2c(NCCNCCO)ccc(NCCNCCO)c21
2. CCCCCCCCCc1ccc(O)cc1
3. O=C(O)/C=C(\CC(=O)O)C(=O)O
4. CC(=O)Oc1cc(-c2coc3cc(OC(C)=O)c(OC(C)=O)c(OC(C)=O)c3c2=O)cc(OC(C)=O)c1OC(C)=O

## Output
1: 0.619 (active); 2: 0.0729 (active); 3: 0.986 (inactive); 4: 0.956 (inactive)
